- Protocol Text: soluble on expression in E. coli; label from the status in PepcDB or PDB records
Observation Type: soluble on expression in E. coli

[[record]]
residues = "SGNTSSERTGMGQEKANRRDSRGTKEGDRPKILMDSPEDADIFHGEDLKAPLEKEEFIEWRPDLEGSEKTDTLDRPTVFRWTGAGKEVYISGSFNNWTNKIPLIRSQNNFVAIVDLPEGEHQYKFYVDGLWTHDPTEPVVTNQLGTVNNIIQVKKTDFEVFDALMVDSQKCSDMSDLSSSPPGPYHQDAYTPKQEEKFKSPPILPPHLLQVILNKDTGISCDPALLPEPNHVMLNHLYALSIKDGVMVLSATHRYKKKYVTTLLYKPI"
observation_type = "soluble on expression in E. coli"
result = "not soluble"

[[record]]
residues = "SKRKARRGAGMPDYETVALVLQGGGALGAYQAGVYEGLHAAGIRPNWLAGISIGGINAAIIAGAPVDERVGRLRGFWEAICRPTGFVGLPWGDAWAALFANAPFGFGSNQSNGQLAAFNALTRGQPGFFEPRFPPPYLVQGGGAAATSFYDTTPLLQTLRDYVDFDLLNRGDVRVSLGAVNVRTGNFAYFDSRETVIRPEHVMASGALPPGFPAIEIDGEFYWDGGLVSNTPLTKVLAVHPMRDTLAFQVDLWPARGPLPTSLEEVAERQKDIQYSSRTRIVTDTFRRQLKLRRSLQRVLDRLPPQVRSSRELAQIRREACTPLVNVVNLIYEANQFERHSKDYEFNTESMREHWRFGLADIERTLAQPGV"
observation_type = "soluble on expression in E. coli"
result = "not soluble"

[[record]]
residues = "MVRVRPSCQVAQSDCGLACVHMLIQSFGISASLRKMRVTYAPGRDGLSLRALTQILSDFGLNSKVVKCSYSNLSRVPLPAIIAWEPAHYVVLEKRLGDSWRIVDPSSGRRWCSKKEIEANFRSFCVTGARGNTKVSEGQVSDDPSWKSLAVLLAGK"
observation_type = "soluble on expression in E. coli"
result = "not soluble"

[[record]]
residues = "MGSDKIHHHHHHMHDVLAKGILSSNNGMNIYRGCTHGCIYCDARSLCYGMDHIFEDIEVKTNVVELLEDTLKRKRKKCMIGTGAMSDPYIHLEEKLQNTRRCLEIIDKYGFGLSILTKSNRILRDLDLLKSINNKAKCVVEMTLTTYDEELCKIIEPNVSTTKERFEVLKIMRDNKIPTVVWLSPILPYINDTEENIRGILDYCIEAEVKGIIVFGIGVTLRNGNREYYYKNLDKQFKGLKEKYIRQYGNSYEVVSKNHEKLMKIIKETCNKNNIICDIREVFNYMRTFEEKNNEVQIGFDI"
observation_type = "soluble on expression in E. coli"
result = "not soluble"

[[record]]
residues = "MADYKDIVLIQSTSSLSASLGDRVTISCRASQDIRNYLNWYQQKPDGTVKLLIYYTSRLLPGVPSRFSGSGSGTDYSLTISNLEQEDIGTYFCQQGNTLPWTFGGGTKLEIRRGGGGSGGGGSGGGGSGGGGSEVQLQQSGPELVKPGASVKISCKDSGYAFSSSWMNWVKQRPGQGPEWIGRIYPGDGDTNYNGKFKGKATLTADKSSSTAYMQLSSLTSVDSAVYFCARSGLLRYAMDYWGQGTSVTVSS"
observation_type = "soluble on expression in E. coli"
result = "soluble"


Let's switch to this sequence now.
INPUT: Fill in: soluble on expression in E. coli of GSHMIEPNVISVRLFKRKVGGLGFLVKERVSKPPVIISDLIRGGAAEQSGLIQAGDIILAVNDRPLVDLSYDSALEVLRGIASETHVVLILRGPEGFTTHLETTFTGDGTPKTIRVTQPLGPPTKAV is ___
OUTPUT: soluble
